assay: chemical genetic growth profiling, strain panel (AID 1159580);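 also: tested at 20 µM; growth read once vehicle control cultures reached saturation at 30 °C; 1 = growth at the plate median or of vehicle wells; lower values mean less growth of the strain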; conditions: S. cerevisiae deletion strains, growth OD, locus YMR129W, active compounds read low
About 2,000 (36%) of roughly 5,500 compounds were called active. Another 18% or so got no clear call; they are omitted. Some of the results follow.
Value kind: normalized growth
Kindly provide the number alone.

COc1ccc2c(=O)c(-c3cc4c(cc3OC)OCO4)coc2c1 ... 1.01
CC1(C)C=Cc2c(cc3occ(-c4ccc5c(c4)OCO5)c(=O)c3c2O)O1 ... 0.993

Enquiry: Query normalized growth for O=c1c(-c2ccc3c(c2)OCO3)coc2cc(O)ccc12
Return: 0.997

Enquiry: Quickly give me recorded normalized growth for N#C/C(=C\c1ccc(O)cc1)C(=O)O
Return: 0.982

Enquiry: Identify the reported normalized growth for the following entry. COc1cc(OC)c2c(=O)c(-c3ccc4c(c3)OCO4)coc2c1
Return: 0.981

Enquiry: Dear colleague, please send me the reported normalized growth for O=c1cc(-c2ccc(O)cc2)oc2cc(O[C@@H]3O[C@H](CO)[C@@H](O)[C@H](O)[C@H]3O[C@@H]3OC[C@](O)(CO)[C@H]3O)cc(O)c12 when you can.
Return: 1.01

Enquiry: // fetch normalized growth given entry CCOC(=O)C1=C(C)NC(C)=C(C(=O)OC)C1c1cccc([N+](=O)[O-])c1 (stereo not drawn)
Return: 0.999

Enquiry: Give reported normalized growth value for CC(C)=CCc1c(O)cc2occ(-c3ccc4c(c3)OCO4)c(=O)c2c1O
Return: 0.982

* * *

experiment: chemical genetic growth profiling, strain panel (AID 1159580);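 also: tested at 20 µM; growth read once vehicle control cultures reached saturation at 30 °C; 1 = growth at the plate median or of vehicle wells; lower values mean less growth of the strain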; conditions: S. cerevisiae deletion strains, growth OD, locus YMR001C, strain CDC5
Out of some 5,500 compounds screened, about 2,000 (36%) were called active. Another 18% or so got no clear call; they are omitted. No stated cut-off is given here; in the data, active means normalized growth mostly below about 0.91 (no sharp cut-off); inconclusive means no clear call, values can overlap the other calls; inactive means mostly above about 0.92. This is one part of the list.
Assign a class; possible classes are active, inactive

O=C1OC(Nc2ccccc2SCc2ccccc2Cl)c2ccccc21 (stereo unspecified) ... inactive
CC1CCc2c(sc3ncnc(Sc4ccccc4)c23)C1 (stereo unspecified) ... inactive
CCCCCc1ccc(S(=O)(=O)Nc2ncc(C)cc2Br)cc1 ... inactive
N#CC(C#N)=NNc1ccc(C(F)(F)F)cc1 ... active
FC(F)(F)c1ccc(C2Sc3ccccc3N=C3c4ccccc4CC32)cc1 (stereo unspecified) ... inactive

Enquiry: Identify the outcome logged in this assay for the compound shown: N#C/C(=N/Nc1ccc(C(F)(F)F)cc1)C(=O)C1CC1
Return: inactive

Enquiry: Would you mind telling me which call this test gave CCC1(c2ccccc2)OC(c2cc(Cl)cc(Cl)c2O)Nc2ccccc21 (stereo unspecified) ?
Return: inactive

Enquiry: Recorded test call requested for Cc1c(NCN2C(=O)CCC2=O)cc2c(c1[N+](=O)[O-])C(C)(C)CC2(C)C
Return: inactive

* * *

Entries and their normalized growth
assay: chemical genetic growth profiling, strain panel (AID 1159580);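 also: tested at 20 µM; growth read once vehicle control cultures reached saturation at 30 °C; 1 = growth at the plate median or of vehicle wells; lower values mean less growth of the strain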; conditions: S. cerevisiae deletion strains, growth OD, locus YDR054C, strain cdc34, active compounds read low
In all, about 5,500 compounds went through this assay and about 2,000 (36%) were called active. Roughly 18% stayed inconclusive and do not appear here. Some of the results follow.
// no unit, no text: just the number

Consider the following illustrative entries.
O=C(OCc1ccc(Oc2ccc(Cl)cc2Cl)c([N+](=O)[O-])c1)c1ccc([N+](=O)[O-])o1 ... 0.968
O=C(SCc1c(Cl)cccc1Cl)c1ccc([N+](=O)[O-])o1 ... 0.95
Cc1nn(Cc2cccc(C(=O)O/N=C(/N)c3ccc(Cl)cc3)c2)c(C)c1Br ... 0.973
CCCCCc1ccc(-c2nc(SCC(C)=O)n[nH]2)cc1 ... 0.922

Okay, now this compound:
Enquiry: Please give the documented normalized growth of Oc1ccc(-n2nnnc2SCc2ccc(OC(F)(F)F)cc2)cc1
Return: 0.968
